- System: Blood
- Test description: Drug level in Homo sapiens (human) whole blood assessed as retention time by UPLC-TOF-MS analysis
Listed below: Retention_time values for each entry.
The figure you give is taken to be in min; do not add the unit.

The cases that follow already have their Retention_time on record.
[[record]]
compound = "NC(=O)N1c2ccccc2CC(=O)c2ccccc21 [OXCARBAZEPINE]"
reading = 5.29

[[record]]
compound = "CCCc1nn(C)c2c(=O)[nH]c(-c3cc(S(=O)(=O)N4CCN(C)CC4)ccc3OCC)nc12"
reading = 5.54

[[record]]
compound = "CC[C@H]1C[C@@H]2C[C@H]3c4[nH]c5ccc(OC)cc5c4CCN(C2)[C@@H]13 [IBOGAINE]"
reading = 4.94

[[record]]
compound = "C#CCN(C)[C@H](C)Cc1ccccc1 [SELEGILINE]"
reading = 3.55

[[record]]
compound = "CCNCCN1C(=O)CN=C(c2ccccc2F)c2cc(Cl)ccc21"
reading = 6.19

[[record]]
compound = "COc1ccccc1OCCNCC(O)COc1cccc2[nH]c3ccccc3c12 (stereo not given) [CARVEDILOL]"
reading = 5.71

[[record]]
compound = "CCCCNC(=O)NS(=O)(=O)c1ccc(C)cc1 [TOLBUTAMIDE]"
reading = 6.16

[[record]]
compound = "CC(N)Cc1ccccc1 (stereo not given) [AMPHETAMINE]"
reading = 2.6


Q: Please give the measured Retention_time for this compound: CN1C(=O)CN=C(c2ccccc2F)c2cc(N)ccc21 [7-AMINO-FLUNITRAZEPAM]
A: 4.02

Q: Please give the measured Retention_time for this compound: CCCC(=O)Nc1ccc(OCC(O)CNC(C)C)c(C(C)=O)c1 (stereo not given) [ACEBUTOLOL]
A: 4.07

----------
- Tested on: Blood
- Test description: Drug level in Homo sapiens (human) whole blood assessed as retention time by UPLC-TOF-MS analysis
Listed below: Retention_time values for each entry.
The figure you give is taken to be in min; do not add the unit.

The cases that follow already have their Retention_time on record.
[[record]]
compound = "C[C@H](N)[C@@H](O)c1ccccc1"
result_units = "min"
reading = 2.05

[[record]]
compound = "CC(C=C(c1ccccc1)c1ccccc1)N(C)C (stereo not drawn)"
result_units = "min"
reading = 5.72

[[record]]
compound = "COc1cc(CCN)c(OC)cc1I"
result_units = "min"
reading = 4.92


Q: Please give the measured Retention_time for this compound: CN[C@@H](C)[C@@H](O)c1ccccc1
A: 2.28

Q: Please give the measured Retention_time for this compound: COc1ccc(C(CN(C)C)C2(O)CCCCC2)cc1 (stereo not drawn)
A: 5.06

Q: Please give the measured Retention_time for this compound: O=C1CN=C(c2ccccc2)c2cc(Cl)ccc2N1CC(F)(F)F
A: 7.22

Q: Please give the measured Retention_time for this compound: CC(C)NCC(O)c1ccc(NS(C)(=O)=O)cc1 (stereo not drawn)
A: 2.02

Q: Please give the measured Retention_time for this compound: CC(C)(N)Cc1ccccc1
A: 3.08

----------
- System: Blood
- Test description: Drug level in Homo sapiens (human) whole blood assessed as retention time by UPLC-TOF-MS analysis
Listed below: Retention_time values for each entry.
The figure you give is taken to be in min; do not add the unit.

The cases that follow already have their Retention_time on record.
[[record]]
compound = "COc1ccc2c(c1OC)C(=O)O[C@@H]2[C@H]1c2c(cc3c(c2OC)OCO3)CCN1C"
reading = 4.99

[[record]]
compound = "CN1CCN2c3ccccc3Cc3ccccc3C2C1 (stereo not given)"
reading = 5.48

[[record]]
compound = "Nc1nnc(-c2cccc(Cl)c2Cl)c(N)n1"
reading = 3.78


Q: Please give the measured Retention_time for this compound: CCOC(=O)C1=C(C)NC(C)=C(C(=O)OC)C1c1cccc(Cl)c1Cl (stereo not given)
A: 7.44

Q: Please give the measured Retention_time for this compound: O=C1CN=C(c2ccccc2)c2cc(Cl)ccc2N1CC1CC1
A: 7.25

Q: Please give the measured Retention_time for this compound: CN1CC[C@@]23CCCC[C@@H]2[C@@H]1Cc1ccc(O)cc13
A: 3.82

Q: Please give the measured Retention_time for this compound: NCCC(Oc1ccc(C(F)(F)F)cc1)c1ccccc1 (stereo not given)
A: 6

Q: Please give the measured Retention_time for this compound: CN(C)c1nc(N)c(C(=O)NC(=N)N)nc1Cl
A: 3.54

Q: Please give the measured Retention_time for this compound: COC(=O)C1=C(C)NC(C)=C(C(=O)OC(C)C)C1c1cccc2nonc12 (stereo not given)
A: 7

Q: Please give the measured Retention_time for this compound: CNC(C)Cc1ccc(OC)cc1 (stereo not given)
A: 3.14
